The origin of these recorded values is paper PMC7949159.

# Test system: HIV-1
# PARTICULARS: read-out: Late IC50
READOUT NAME: IC50
I'd appreciate it if you wrote the number followed by its unit.

[in] // IC50 lookup, key: COc1ccccc1-c1ccc2c(-c3ccc4c(c3)OCCO4)c(C(OC(C)(C)C)C(=O)O)c(C)nc2c1 (centres unmarked)
[out] 20 nM

[in] // IC50 lookup, key: Cc1nc2ccccc2c(-c2ccc3c(c2)OCCO3)c1C(OC(C)(C)C)C(=O)O (centres unmarked)
[out] 660 nM

###

# TESTED ON: HIV-1 IN (full-length, His-tagged and FLAG-tagged) (Human immunodeficiency virus type 1 group M subtype B, UniProt P12497)
# Construct: recombinant proteins 6xHis-tagged and FLAG-tagged full-length INs were expressed in E. coli
# METHOD DESCRIPTION: HTRF-based IN multimerization assay
# PARTICULARS: average with SD of three independent experiments, read-out: In vitro IN multimerization EC50
READOUT NAME: EC50 (nM)
# number only, unit nM dropped from output

[in] // EC50 lookup, key: Cc1nc2ccccc2c(-c2ccc3c(c2)OCCO3)c1C(OC(C)(C)C)C(=O)O (centres unmarked) [NGJ-9002]
[out] 110

[in] // EC50 lookup, key: COc1ccccc1-c1ccc2c(-c3ccc4c(c3)OCCO4)c(C(OC(C)(C)C)C(=O)O)c(C)nc2c1 (centres unmarked) [JDH-2110]
[out] 40
